Target: NR2F6 (Homo sapiens, UniProt P10588)
Construct: expressed in transfected cells; also transient transfection
Sequence (P10588 whole entry): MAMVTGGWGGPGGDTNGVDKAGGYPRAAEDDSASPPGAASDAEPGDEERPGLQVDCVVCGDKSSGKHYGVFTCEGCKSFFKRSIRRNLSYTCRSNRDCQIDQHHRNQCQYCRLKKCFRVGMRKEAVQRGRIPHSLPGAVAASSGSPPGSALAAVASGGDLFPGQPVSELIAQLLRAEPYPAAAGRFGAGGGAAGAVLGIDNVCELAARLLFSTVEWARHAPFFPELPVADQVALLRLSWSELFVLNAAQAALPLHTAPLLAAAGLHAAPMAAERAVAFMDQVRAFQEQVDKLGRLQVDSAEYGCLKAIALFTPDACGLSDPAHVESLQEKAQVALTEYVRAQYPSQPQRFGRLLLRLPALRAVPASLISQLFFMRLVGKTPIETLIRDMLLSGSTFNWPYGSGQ
Test: NR2F6 agonist screening, Firefly signal cmpd/DMSO
Type: cell-based
Conditions: C11 analogs follow set (Tables 2-10), repeat 2
Just so you know, the groups by Firefly, cmpd/DMSO repeat 2 go like this: bin A (below 0.9), bin B (0.9 to below 6), bin C (6 or more)

> print(dat)
                                         smi                         tested.system  label.value
 1  O=c1oc2ccc(Cl)cc2cc1S(=O)(=O)c1ccc(Cl)c(Cl)c1  NR2F6 (Homo sapiens, UniProt P10588)        bin B
 2  COc1ccccc1NC(=O)c1ccc2oc(=O)c(S(=O)(=O)c3ccccc3)cc2c1  NR2F6 (Homo sapiens, UniProt P10588)        bin C
 3  Cc1ccc(S(=O)(=O)c2cc3cc(Br)ccc3oc2=O)cc1Cl  NR2F6 (Homo sapiens, UniProt P10588)        bin B
 4   COc1ccc2cc(S(=O)(=O)c3ccccc3)c(=O)oc2c1  NR2F6 (Homo sapiens, UniProt P10588)        bin A
 5  COc1ccc2cc(S(=O)(=O)c3ccc(C(C)(C)C)cc3)c(=O)oc2c1  NR2F6 (Homo sapiens, UniProt P10588)        bin B
 6  Cc1ccc(NC(=O)c2ccc3oc(=O)c(S(=O)(=O)c4ccccc4)cc3c2)cc1C  NR2F6 (Homo sapiens, UniProt P10588)        bin A
 7  COc1ccc2cc(S(=O)(=O)c3ccc(F)c(Cl)c3)c(=O)oc2c1  NR2F6 (Homo sapiens, UniProt P10588)        bin B
 8  COc1ccc2cc(S(=O)(=O)c3ccc(F)c(C)c3)c(=O)oc2c1  NR2F6 (Homo sapiens, UniProt P10588)        bin B
 9  COc1ccc2cc(S(=O)(=O)c3ccccc3F)c(=O)oc2c1  NR2F6 (Homo sapiens, UniProt P10588)        bin A
10  COc1ccc(S(=O)(=O)c2cc3cc(Br)ccc3oc2=O)cc1OC  NR2F6 (Homo sapiens, UniProt P10588)        bin C
11  Cc1ccc(NC(=O)c2ccc3oc(=O)c(S(=O)(=O)c4ccc(F)cc4)cc3c2)cc1C  NR2F6 (Homo sapiens, UniProt P10588)        bin C
12  COc1ccccc1NC(=O)c1ccc2oc(=O)c(S(=O)(=O)c3ccc(F)cc3)cc2c1  NR2F6 (Homo sapiens, UniProt P10588)        bin C
